Assembled from different publications: IC50 for Fibroblast growth factor receptor 2 (Homo sapiens, UniProt P21802).

// worked examples, IC50 included
CCN1CCN(c2ccc(Nc3ncc(C)c(Nc4ccc5cn[nH]c5c4)n3)c(OC)c2)CC1    > 1000 nM
CN(C)CCOc1cc(NC(=O)N2CCCc3ccc(C=O)nc32)ncc1C#N    > 10000 nM
C=CC(=O)Nc1cc(OCCC(F)(F)F)ccc1C(=O)Nc1cc(CCc2cc(OC)cc(OC)c2)n[nH]1    4.4 nM
COc1cc(OC)c(F)c(-c2cc3[nH]nc(-c4ccc5c(c4)CN(CC(C)O)C5=O)c3cn2)c1F (centres unmarked)    < 100 nM
Cn1cc(-c2ccc3c(-c4cc(NS(C)(=O)=O)cc(-c5ccc(F)cc5F)c4)cnn3c2)cn1    2.5 nM

Q. Find the measured IC50: item COc1cc(OC)c(F)c(N2Cc3cnc(NC4CCOCC4)cc3C3(CC3)C2=O)c1F , target or system Fibroblast growth factor receptor 2 (Homo sapiens, UniProt P21802).
A. < 100 nM

Q. Find the measured IC50: item CN(C)CCn1cc(-c2ccc3c(-c4cc(NS(C)(=O)=O)cc(-c5ccc(F)cc5F)c4)cnn3c2)cn1 , target or system Fibroblast growth factor receptor 2 (Homo sapiens, UniProt P21802).
A. 0.23 nM
